Let's look at some molecules and their measured pIC50.
tested on: HT29: human colon cancer cell line; test: Proliferation IC50 assay, oxic/hypoxic, HT29; format: cell-based; details: Homo sapiens, HT-29; Table 3; 4 h exposure under aerobic conditions
Remember the convention: pIC50 equals -log10 of concentration in molar.

Specify pIC50 for COc1cc2cc(C(=O)N3CC(CCl)c4c3cc([N+](=O)[O-])c3ccc(S(N)(=O)=O)cc43)[nH]c2c(OC)c1OC (centres unmarked) [Compound 48] and stop.
4.62

Specify pIC50 for COc1cc2cc(C(=O)N3CC(CCl)c4c3cc([N+](=O)[O-])c3cc(C(=O)NCCO)ccc43)[nH]c2c(OC)c1OC (centres unmarked) [Compound 17] and stop.
5.24

Specify pIC50 for COc1cc2cc(C(=O)N3CC(CCl)c4c3cc([N+](=O)[O-])c3ccccc43)[nH]c2c(OC)c1OC (centres unmarked) [Compound R1, reference compound] and stop.
5.47

Specify pIC50 for COc1cc2cc(C(=O)N3CC(CCl)c4c3cc([N+](=O)[O-])c3ccc(S(C)(=O)=O)cc43)[nH]c2c(OC)c1OC (centres unmarked) [Compound 46] and stop.
4.85

Specify pIC50 for CN(C)CCOc1ccc2[nH]c(C(=O)N3CC(CCl)c4c3cc([N+](=O)[O-])c3cccc([N+](=O)[O-])c43)cc2c1 (centres unmarked) [Compound 52] and stop.
5.85

Specify pIC50 for CN(C)CCOc1ccc2[nH]c(C(=O)N3CC(CCl)c4c3cc([N+](=O)[O-])c3cc(S(C)(=O)=O)ccc43)cc2c1 (centres unmarked) [Compound 24] and stop.
6.01

Specify pIC50 for CN(C)CCOc1ccc2[nH]c(C(=O)N3CC(CCl)c4c3cc([N+](=O)[O-])c3c(C#N)cccc43)cc2c1 (centres unmarked) [Compound 6] and stop.
6.92

Specify pIC50 for CN(C)CCOc1ccc2[nH]c(C(=O)N3CC(CCl)c4c3cc([N+](=O)[O-])c3ccccc43)cc2c1 (centres unmarked) [Compound R2, reference compound] and stop.
6.33

----------
Let's look at some molecules and their measured melting point.
Counter-ions that a name gives are not always drawn.

Example cases with answers are listed next.
Specify melting point for COc1cc2cc(C(=O)N3CC(CCl)c4c3cc(N)c3ccc(S(C)(=O)=O)cc43)[nH]c2c(OC)c1OC (centres unmarked) and stop.
165 to 170 °C

Specify melting point for COc1cc2cc(C(=O)N3CC(CCl)c4c3cc([N+](=O)[O-])c3c([N+](=O)[O-])cccc43)[nH]c2c(OC)c1OC (centres unmarked) and stop.
278 to 279 °C

Specify melting point for CCC(=O)NS(=O)(=O)c1ccc2c3c(cc([N+](=O)[O-])c2c1)N(C(=O)c1cc2cc(OCCN(C)C)ccc2[nH]1)CC3CCl (centres unmarked) and stop.
221 to 225 °C

***
Specify melting point for COc1cc2cc(C(=O)N3CC(CCl)c4c3cc([N+](=O)[O-])c3cc(S(=O)(=O)NCCOP(=O)(O)O)ccc43)[nH]c2c(OC)c1OC (centres unmarked) and stop.
228 to 232 °C

Specify melting point for CN(C)CCOc1ccc2[nH]c(C(=O)N3CC(CCl)c4c3cc([N+](=O)[O-])c3cccc([N+](=O)[O-])c43)cc2c1 (centres unmarked) (as salt: HCl) and stop.
187 to 191 °C

Specify melting point for CN(C)CCOc1ccc2[nH]c(C(=O)N3CC(CCl)c4c3cc([N+](=O)[O-])c3cc(S(=O)(=O)NCCO)ccc43)cc2c1 (centres unmarked) and stop.
205 to 210 °C

Specify melting point for CN(C)CCOc1ccc2[nH]c(C(=O)N3CC(CCl)c4c3cc([N+](=O)[O-])c3c(C(N)=O)cccc43)cc2c1 (centres unmarked) and stop.
> 350 °C

Specify melting point for CN(C)CCOc1ccc2[nH]c(C(=O)N3CC(CCl)c4c3cc([N+](=O)[O-])c3cc(N)ccc43)cc2c1 (centres unmarked) and stop.
> 300 °C

Specify melting point for CN(C)CCOc1ccc2[nH]c(C(=O)N3CC(CCl)c4c3cc(N)c3cc(S(N)(=O)=O)ccc43)cc2c1 (centres unmarked) and stop.
260 to 266 °C (dec.)

Specify melting point for CN(C)CCOc1ccc2[nH]c(C(=O)N3CC(CCl)c4c3cc([N+](=O)[O-])c3cc(S(C)(=O)=O)ccc43)cc2c1 (centres unmarked) (as salt: HCl) and stop.
250 to 252 °C

Specify melting point for CC(=O)c1ccc2c3c(cc([N+](=O)[O-])c2c1)N(C(=O)c1cc2cc(OCCN(C)C)ccc2[nH]1)CC3CCl (centres unmarked) and stop.
> 350 °C

Specify melting point for COc1cc2cc(C(=O)N3CC(CCl)c4c3cc(N)c3cc(S(C)(=O)=O)ccc43)[nH]c2c(OC)c1OC (centres unmarked) and stop.
266 to 268 °C

Specify melting point for CN(C)CCOc1ccc2[nH]c(C(=O)N3CC(CCl)c4c3cc([N+](=O)[O-])c3c([N+](=O)[O-])cccc43)cc2c1 (centres unmarked) (as salt: HCl) and stop.
225 to 226 °C

Specify melting point for COc1cc2cc(C(=O)N3CC(CCl)c4c3cc([N+](=O)[O-])c3cc(C(N)=O)ccc43)[nH]c2c(OC)c1OC (centres unmarked) and stop.
287 to 289 °C

Specify melting point for CN(C)CCOc1ccc2[nH]c(C(=O)N3CC(S(=O)(=O)NCCO)c4c3cc(N)c3c(CCl)cccc43)cc2c1 (centres unmarked) and stop.
225 to 230 °C

Specify melting point for CN(C)CCOc1ccc2[nH]c(C(=O)N3CC(CCl)c4c3cc(N)c3ccc(S(C)(=O)=O)cc43)cc2c1 (centres unmarked) and stop.
235 to 240 °C

Specify melting point for COC(=O)c1ccc2c3c(cc([N+](=O)[O-])c2c1)N(C(=O)c1cc2cc(OCCN(C)C)ccc2[nH]1)CC3CCl (centres unmarked) (as salt: HCl) and stop.
> 300 °C

Specify melting point for COc1cc2cc(C(=O)N3CC(CCl)c4c3cc([N+](=O)[O-])c3ccc(S(N)(=O)=O)cc43)[nH]c2c(OC)c1OC (centres unmarked) and stop.
264 to 266 °C (dec.)

Specify melting point for CN(C)CCOc1ccc2[nH]c(C(=O)N3CC(CCl)c4c3cc([N+](=O)[O-])c3cc(S(=O)(=O)N(C)C)ccc43)cc2c1 (centres unmarked) (as salt: HCl) and stop.
> 350 °C

Specify melting point for COc1cc2cc(C(=O)N3CC(CCl)c4c3cc([N+](=O)[O-])c3cc(C(=O)NCCO)ccc43)[nH]c2c(OC)c1OC (centres unmarked) and stop.
244 to 245 °C

----------
Let's look at some compounds and their measured Clonogenic HCR HT29.
test system: HT29 clonogens; assay: Clonogenic assay (C10), oxic/hypoxic, HT29; format: cell-based, human; details: C10(aerobic)/C10(hypoxic)

Specify Clonogenic HCR HT29 for CN(C)CCOc1ccc2[nH]c(C(=O)N3CC(CCl)c4c3cc([N+](=O)[O-])c3cc(S(N)(=O)=O)ccc43)cc2c1 (stereo not shown) [Compound 26] and stop.
>30.9

Specify Clonogenic HCR HT29 for COc1cc2cc(C(=O)N3CC(CCl)c4c3cc([N+](=O)[O-])c3cc(C(C)=O)ccc43)[nH]c2c(OC)c1OC (stereo not shown) [Compound 11] and stop.
>13.5

Specify Clonogenic HCR HT29 for COc1cc2cc(C(=O)N3CC(CCl)c4c3cc([N+](=O)[O-])c3cc([N+](=O)[O-])ccc43)[nH]c2c(OC)c1OC (stereo not shown) [Compound 8] and stop.
>16.2

***
Specify Clonogenic HCR HT29 for CN(C)CCOc1ccc2[nH]c(C(=O)N3CC(CCl)c4c3cc([N+](=O)[O-])c3cc(C(N)=O)ccc43)cc2c1 (stereo not shown) [Compound 16] and stop.
>14

----------
test system: SKOV3: human ovarian carcinoma cell line; assay: Proliferation IC50 assay, oxic/hypoxic, SKOV3; format: cell-based; details: Table 3; IC50(aerobic)/IC10(hypoxic)
Let's look at some molecules and their measured HCR (hypoxic cytotoxicity ratio) SKOV3.
Simply state the number, no unit and no words.

Example cases with answers are listed next.
Specify HCR (hypoxic cytotoxicity ratio) SKOV3 for COc1cc2cc(C(=O)N3CC(CCl)c4c3cc([N+](=O)[O-])c3cc(S(N)(=O)=O)ccc43)[nH]c2c(OC)c1OC (stereo not drawn) [Compound 25] and stop.
10

Specify HCR (hypoxic cytotoxicity ratio) SKOV3 for CN(C)CCOc1ccc2[nH]c(C(=O)N3CC(CCl)c4c3cc([N+](=O)[O-])c3cc([N+](=O)[O-])ccc43)cc2c1 (stereo not drawn) [Compound 9] and stop.
9.3

Specify HCR (hypoxic cytotoxicity ratio) SKOV3 for COc1cc2cc(C(=O)N3CC(CCl)c4c3cc([N+](=O)[O-])c3ccc(S(N)(=O)=O)cc43)[nH]c2c(OC)c1OC (stereo not drawn) [Compound 48] and stop.
2.6

***
Specify HCR (hypoxic cytotoxicity ratio) SKOV3 for CN(C)CCOc1ccc2[nH]c(C(=O)N3CC(CCl)c4c3cc([N+](=O)[O-])c3cc(S(N)(=O)=O)ccc43)cc2c1 (stereo not drawn) [Compound 26] and stop.
280

Specify HCR (hypoxic cytotoxicity ratio) SKOV3 for COc1ccc(/C=C/C(=O)N2CC(CCl)c3c2cc([N+](=O)[O-])c2cc(S(=O)(=O)NCCO)ccc32)cc1 (stereo not drawn) [Compound 37] and stop.
3.4

Specify HCR (hypoxic cytotoxicity ratio) SKOV3 for COc1cc2cc(C(=O)N3CC(CCl)c4c3cc([N+](=O)[O-])c3cc([N+](=O)[O-])ccc43)[nH]c2c(OC)c1OC (stereo not drawn) [Compound 8] and stop.
78

Specify HCR (hypoxic cytotoxicity ratio) SKOV3 for CN(C)CCOc1ccc2[nH]c(C(=O)N3CC(CCl)c4c3cc([N+](=O)[O-])c3cc(S(C)(=O)=O)ccc43)cc2c1 (stereo not drawn) [Compound 24] and stop.
11

Specify HCR (hypoxic cytotoxicity ratio) SKOV3 for COc1cc2cc(C(=O)N3CC(CCl)c4c3cc([N+](=O)[O-])c3cc(C(N)=O)ccc43)[nH]c2c(OC)c1OC (stereo not drawn) [Compound 15] and stop.
6.1

Specify HCR (hypoxic cytotoxicity ratio) SKOV3 for COc1cc2cc(C(=O)N3CC(CCl)c4c3cc([N+](=O)[O-])c3c(C(C)=O)cccc43)[nH]c2c(OC)c1OC (stereo not drawn) [Compound 3] and stop.
3.4

Hey, just so you know, these numbers are from patent US7718688B2.
